Molecular target: human GLP-1 receptor (human, UniProt P43220 24-463)
Experiment: cell-based or functional assay
Bridges are numbered along the chain shown (N, C = ends). Where no end group is shown, it is not given here. [ ]: non-standard residue; d: D form. The star is where a group is joined. Acetyl(2-(4-imidazolyl)) = O=C(Cc1c[nH]cn1)*; Aib = CC(C)(N)C(=O)O
Label label 0 if In vitro activity relative to native peptide (%) vs. GLP-1 falls below 6%; label label 1 in every other case.

For orientation, consider the following solved cases.
{Acetyl(2-(4-imidazolyl))}-[Aib]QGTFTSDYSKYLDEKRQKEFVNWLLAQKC (bridge 15-19) [triple agonist of SEQ ID NO: 93]    label 0
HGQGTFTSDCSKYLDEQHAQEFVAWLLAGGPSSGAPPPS [triple agonist of SEQ ID NO: 46]    label 0
H[Aib]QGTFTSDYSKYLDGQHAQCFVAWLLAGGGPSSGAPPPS [triple agonist of SEQ ID NO: 39]    label 1
H[Aib]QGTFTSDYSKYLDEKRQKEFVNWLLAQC (bridge 16-20) [triple agonist of SEQ ID NO: 56]    label 1

Could you verify whether the entry Y[Aib]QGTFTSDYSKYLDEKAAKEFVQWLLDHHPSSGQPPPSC (bridge 16-20) [triple agonist of SEQ ID NO: 75] shows In vitro activity relative to native peptide (%) vs. GLP-1 of no less than 6%?
label 1

Taken from patent US20230302148A1.
